Read-out: Thrombomodulin, THBD (gene 7056)
experimental-details: BSK_CASM3C_Thrombomodulin: BioMAP Diversity Plus: CASM3C Assay for Thrombomodulin Biomarker Activity (AID 2283051);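 also: thrombomodulin protein level measured by ELISA 24 h after dosing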
measurement-conditions: primary human coronary artery smooth muscle cells; actives raise or lower the signal
Activity calls are given as the source filed them. The calls were made as follows: active = hit-call score of the fitted dose curve at least 0.9, where 1 is the maximum; inactive = score below 0.9.
Pick from active, inactive when you respond.

{"molecule": "CN(Cc1cnc2nc(N)nc(N)c2n1)c1ccc(C(=O)N[C@@H](CCC(=O)O)C(=O)O)cc1", "group-label": "inactive"}
{"molecule": "O=C(O)CCC(F)(F)C(F)(F)C(F)(F)C(F)(F)C(F)(F)F", "group-label": "inactive"}
{"molecule": "OCC(F)(F)C(F)(F)C(F)(F)C(F)(F)C(F)(F)C(F)(F)C(F)(F)C(F)(F)C(F)(F)C(F)(F)C(F)(F)F", "group-label": "inactive"}
{"molecule": "C=CC(=C)CC/C=C(\\C)CCC=C(C)C", "group-label": "inactive"}
{"molecule": "COc1cc(OC)nc(NC(=O)NS(=O)(=O)Nc2ccccc2C(=O)N(C)C)n1", "group-label": "inactive"}
{"molecule": "O=C(O)C(F)(F)OC(F)(F)C(F)(F)OC(F)(F)C(F)(F)OC(F)(F)C(F)(F)C(F)(F)C(F)(F)F", "group-label": "inactive"}
{"molecule": "OCCN1CN(CCO)CN(CCO)C1", "group-label": "inactive"}
{"molecule": "NC(=NCCCCCCN=C(N)/N=C(\\N)Nc1ccc(Cl)cc1)/N=C(\\N)Nc1ccc(Cl)cc1", "group-label": "active"}

// query # fetch the recorded call for CN(C)c1ccc(C(=C2C=CC(=[N+](C)C)C=C2)c2ccccc2)cc1 here
// result active

// query # fetch the recorded call for Cc1[nH]nc2c1N=C(c1ccccc1Cl)c1cc([N+](=O)[O-])ccc1N2 here
// result inactive

// query # fetch the recorded call for CS(=O)(=O)c1ccc([C@@H](CC2CCCC2)C(=O)Nc2cnccn2)cc1Cl here
// result inactive

// query # fetch the recorded call for O=C(CCCN1CCC(O)(c2ccc(Cl)cc2)CC1)c1ccc(F)cc1 here
// result inactive

// query # fetch the recorded call for Clc1ccc(Nc2nnc(Cc3ccncc3)c3ccccc23)cc1 here
// result inactive

// query # fetch the recorded call for CC(C)(C)c1ccc(O)c(O)c1 here
// result active

* * *

experimental-details: Tanguay_ZF_120hpf_SOMI_legacy: (Legacy) Oregon State University Tanguay Lab 120 Hour Post-fertilization zebrafish Assay for Somite Malformation (AID 2283647)
Results filed as inconclusive are left out. The source made the active and inactive calls. How the source made its calls: active means hit-call score of the fitted dose curve at least 0.9, where 1 is the maximum; inconclusive means response in the unintended direction; inactive means score below 0.9.
observation-type: outcome

In the examples that follow, each entry is paired with its recorded outcome.
{"compound": "CC(=O)Nc1ccc(O)cc1", "observed": "inactive"}
{"compound": "CCC(C)c1ccccc1O (stereo not drawn)", "observed": "inactive"}
{"compound": "CCCCC=O", "observed": "inactive"}
{"compound": "CCCCCCCCCCCCCCC", "observed": "inactive"}
{"compound": "CN(Cc1cnc2nc(N)nc(N)c2n1)c1ccc(C(=O)N[C@@H](CCC(=O)O)C(=O)O)cc1", "observed": "inactive"}

// outcome value for OCC(CO)(CBr)CBr : inactive

// outcome value for O=C(CCCN1CCC(O)(c2ccc(Cl)cc2)CC1)c1ccc(F)cc1 : inactive

// outcome value for CN(C)CCOC(c1ccccc1)c1ccccc1 : inactive

* * *

tested-on: Nuclear receptor subfamily 4 group A member 2 (Homo sapiens)
experimental-details: ATG_NURR1_TRANS: Attagene TRANS-FACTORIAL HepG2 Assay for human Nuclear Receptor Related Protein 1 (NURR1) (AID 2282985)
measurement-conditions: HepG2 Attagene TRANS reporter, mRNA readout
Results filed as inconclusive are left out. Calls of active or inactive are those of the source. Rule for the calls: active = hit-call score of the fitted dose curve at least 0.9, where 1 is the maximum; inconclusive = response in the unintended direction; inactive = score below 0.9.
Pick from Y = active, N = inactive when you respond.

Illustrative cases are given below, each with its answer.
{"molecule": "O=CC(F)(F)C(F)(F)C(F)(F)C(F)F", "group-label": "N"}
{"molecule": "O=C1c2ccccc2C(=O)c2c(O)c(O)cc(O)c21", "group-label": "Y"}
{"molecule": "C=CC(C)(CCC=C(C)C)OC(C)=O (stereo not given)", "group-label": "N"}
{"molecule": "CCCCN(C)C", "group-label": "N"}
{"molecule": "CC(C)(c1ccc(Oc2ccc(N)cc2)cc1)c1ccc(Oc2ccc(N)cc2)cc1", "group-label": "Y"}
{"molecule": "CC1CCC(CO)CC1 (stereo not given)", "group-label": "N"}

// query # fetch the recorded call for NNc1nc(-c2ccc([N+](=O)[O-])cc2)cs1 here
// result N

// query # fetch the recorded call for CCCCCCCCCCCC(=O)O here
// result N

// query # fetch the recorded call for Clc1ccc(Nc2nnc(Cc3ccncc3)c3ccccc23)cc1 here
// result Y

// query # fetch the recorded call for CCC(=O)O here
// result N

// query # fetch the recorded call for CC1=CC(=O)c2ccccc2C1=O here
// result N

* * *

experimental-details: ATG_PBREM_CIS: Attagene CIS-FACTORIAL HepG2 Assay for human Phenobarbital-responsive Enhancer Module (PBREM) (AID 2282955)
measurement-conditions: HepG2 PBREM cis-reporter, Attagene multiplexed transcription; actives raise or lower the signal
Activity calls are given as the source filed them. The calls were made as follows: active = hit-call score of the fitted dose curve at least 0.9, where 1 is the maximum; inactive = score below 0.9.
observation-type: AC50

{"smiles-structure": "O=C(Nc1cccc([N+](=O)[O-])c1)c1cc2ccccc2cc1O", "AC50": "3.64 µM (active)"}
{"smiles-structure": "CCO[Si](C)(C)OCC", "AC50": "inactive"}
{"smiles-structure": "CC1=CC(=O)c2ccccc2C1=O", "AC50": "inactive"}
{"smiles-structure": "Cc1cc(Cc2cc(C)cc(C(C)(C)C)c2O)c(O)c(C(C)(C)C)c1", "AC50": "151 µM (active)"}
{"smiles-structure": "CCCCCCCCCCCCCC[n+]1ccccc1", "AC50": "inactive"}

// AC50 value for COc1cc(OC)nc(NC(=O)NS(=O)(=O)Nc2ccccc2C(=O)N(C)C)n1 : inactive

// AC50 value for O=C(O)CCC(F)(F)C(F)(F)C(F)(F)C(F)(F)C(F)(F)C(F)(F)F : inactive

// AC50 value for CC(=O)CC(C)C : inactive

// AC50 value for Brc1ccc(Oc2ccc(Br)cc2Br)cc1 : inactive

// AC50 value for CCOC(=O)c1nc(C(Cl)(Cl)Cl)n(-c2ccc(Cl)cc2Cl)n1 : 100 µM (active)

// AC50 value for Cc1cc(C(C)(C)C)c(O)c(C(C)(C)C)c1 : inactive

// AC50 value for Cc1[nH]nc2c1N=C(c1ccccc1Cl)c1cc([N+](=O)[O-])ccc1N2 : inactive

// AC50 value for CC(C)(O)C(=O)c1ccccc1 : inactive

* * *

experimental-details: STM_H9_OrnCyssISnorm_ratio: Stemina devTOX quickPredict H9 human embryonic stem cell (hESC)-based Assay for Ornithine (ORN):Cystine (CYSS) Ratio (AID 2283714)
Inconclusive results are not listed. The source made the active and inactive calls. Rule for the calls: active = hit-call score of the fitted dose curve at least 0.9, where 1 is the maximum; inconclusive = response in the unintended direction; inactive = score below 0.9.
Pick from active, inactive when you respond.

Illustrative cases are given below, each with its answer.
{"smiles-structure": "Cc1[nH]nc2c1N=C(c1ccccc1Cl)c1cc([N+](=O)[O-])ccc1N2", "group-label": "active"}
{"smiles-structure": "OCC(CO)(CBr)CBr", "group-label": "inactive"}

// query # fetch the recorded call for CC1=CC(=O)c2ccccc2C1=O here
// result active

// query # fetch the recorded call for CN(C)CCOC(c1ccccc1)c1ccccc1 here
// result active

// query # fetch the recorded call for Oc1c(Cl)cc(Cl)cc1Sc1cc(Cl)cc(Cl)c1O here
// result inactive

// query # fetch the recorded call for CCCCc1oc2ccccc2c1C(=O)c1cc(I)c(OCCN(CC)CC)c(I)c1 here
// result active

// query # fetch the recorded call for C=Cc1ccc(O)c(OC)c1 here
// result active

// query # fetch the recorded call for O=C(c1ccccc1)c1ccccc1 here
// result inactive

* * *

Read-out: Low-density lipoprotein receptor (LDLR), LDLR (gene 3949)
experimental-details: BSK_CASM3C_LDLR: BioMAP Diversity Plus: CASM3C Assay for Low-density lipoprotein receptor (LDLR) Biomarker Activity (AID 2283045);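 also: LDLR protein level on the cell surface quantified by ELISA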
measurement-conditions: primary human coronary artery smooth muscle cells; actives raise or lower the signal
Activity calls are given as the source filed them. The calls were made as follows: active = hit-call score of the fitted dose curve at least 0.9, where 1 is the maximum; inactive = score below 0.9.
Pick from active, inactive when you respond.

{"smiles-structure": "O=S(=O)(O)C(F)(F)C(F)(F)C(F)(F)C(F)(F)C(F)(F)C(F)(F)C(F)(F)C(F)(F)C(F)(F)C(F)(F)F", "group-label": "inactive"}
{"smiles-structure": "COCN(COC)c1nc(N(COC)COC)nc(N(COC)COC)n1", "group-label": "inactive"}
{"smiles-structure": "Cc1ccc(N=Nc2c(O)ccc3ccccc23)c(C)c1", "group-label": "inactive"}
{"smiles-structure": "CCOC(=O)CN[C@@H](C(=O)N1CC[C@H]1C(=O)NCc1ccc(/C(N)=N/O)cc1)C1CCCCC1", "group-label": "inactive"}
{"smiles-structure": "CN(C)CCOC(c1ccccc1)c1ccccc1", "group-label": "inactive"}
{"smiles-structure": "CCCCc1oc2ccccc2c1C(=O)c1cc(I)c(OCCN(CC)CC)c(I)c1", "group-label": "active"}
{"smiles-structure": "OCCN1CN(CCO)CN(CCO)C1", "group-label": "active"}

// query # fetch the recorded call for CCCCCCCCCCCCOS(=O)(=O)O here
// result inactive
